Listed next: entries and their corresponding activation.
- METHOD_SUMMARY: qHTS assay for small molecule activators of the p53 signaling pathway (AID 651743); further: % of control where 0% means no effect
- RECORDED_CONDITIONS: HCT-116 p53RE-bla, beta-lactamase FRET ratio, 16 h; stronger effect = higher value
- Description: National Center for Advancing Translational Sciences [NCATS] NIH Chemical Genomics Center [NCGC] U.S. Environmental Protection Agency [EPA] National Institutes of Environmental Health Sciences [NIEHS] National Toxicology Program [NTP] Assay Overview: p53, a tumor suppressor protein, is activated following cellular insult, including DNA damage and other cellular stresses. […] The activation of the report gene under culture conditions can be detected by fluorescence intensity. […]
Records with an inconclusive call do not appear.
MEASUREMENT_KIND: activation (%)

INSERT INTO assay_data (compound, measured_result) VALUES
  ('O=[N+]([O-])c1cc([N+](=O)[O-])c2ccccc2c1', -0.898),
  ('Cc1cc(O)ccc1Cl', -0.548),
  ('CC(C)(C)C(O)C(Oc1ccc(Cl)cc1)n1cncn1 (centres undefined)', -1.72),
  ('OCCCBr', 1.31),
  ('CC(C)Oc1cccc(NC(=O)c2ccccc2C(F)(F)F)c1', -2.47),
  ('O=C(Nc1ccccc1-c1ccc(Cl)cc1)c1cccnc1Cl', -6.13),
  ('O=C(O)CCCOc1ccc(Cl)cc1Cl', 3.34),
  ('C=CCC1=C(C)C(OC(=O)C2C(C=C(C)C)C2(C)C)CC1=O (centres undefined)', 1.22),
  ('CO/C=C(/C(=O)OC)c1ccccc1Oc1cc(Oc2ccccc2C#N)ncn1', 25);

----------
- METHOD_SUMMARY: Quantitative High-Throughput drug screen in 47 multiple myeloma cell lines against the NCATS MIPE library collection: Karpas620_DSMZ cell viability assay (AID 1918959); further: nearly all actives have a fitted effect of over 30% in size
- RECORDED_CONDITIONS: Karpas620 myeloma viability, CellTiter-Glo ATP luminescence, 48 h; series mostly up to 45.8 µM
Inconclusive results are not listed. Activity calls are given as the source filed them. The call rests on the fitted dose curve; in most records, active means well fitted cell-killing curve with a large enough effect; inconclusive means small, poorly fitted or top-dose-only effect, or effect the other way; inactive means no such curve, though single readings can be large or run the other way.
Labels: active, inactive

INSERT INTO results (compound, classification) VALUES
  ('NC1CC1c1ccccc1 (stereo unspecified)', 'inactive'),
  ('O=C(N[C@H]1CN2CCC1CC2)c1ccc(Cl)cc1', 'inactive'),
  ('CN1CCN(c2ccc([N+](=O)[O-])c3no[n+]([O-])c23)CC1', 'active'),
  ('CC(=O)Nc1ccc(OC[C@](C)(O)C(=O)Nc2ccc([N+](=O)[O-])c(C(F)(F)F)c2)cc1', 'inactive'),
  ('N=c1c2c(-c3ccccc3)c(-c3ccccc3)n(Cc3ccccc3)c2ncn1C1CCC(O)CC1 (stereo unspecified)', 'active'),
  ('CC(C)[C@]12O[C@@H]1[C@@H]1O[C@]13[C@]1(O[C@H]1C[C@@H]1C4=C(CC[C@@]13C)C(=O)OC4)[C@H]2O', 'inactive');

----------
Potency reference
- METHOD_SUMMARY: Quantitative High-Throughput drug screen in 47 multiple myeloma cell lines against the NCATS MIPE library collection: U266_ATCC cell viability assay (AID 1919864); further: potency means the concentration at half of the fitted maximal effect; nearly all actives have a fitted effect of over 35% in size
- RECORDED_CONDITIONS: U266 myeloma viability, CellTiter-Glo ATP luminescence, 48 h; series mostly up to 45.8 µM
Records with an inconclusive call do not appear. The source made the active and inactive calls. The call rests on the fitted dose curve; in most records, active means well fitted cell-killing curve with a large enough effect; inconclusive means small, poorly fitted or top-dose-only effect, or effect the other way; inactive means no such curve, though single readings can be large or run the other way.
MEASUREMENT_KIND: Potency

INSERT INTO assay_data (molecule, measured_result) VALUES
  ('COC1=C[C@@H]2[C@@H]3Cc4ccc(OC)c(O)c4[C@]2(CCN3C)CC1=O', '2350 nM (active)'),
  ('CO[C@H]1CCC(O[C@H]2C[C@H]([C@]3(C)CC[C@]4(C[C@H](O)[C@@H](C)[C@@H]([C@@H](C)C=C(C)C(=O)[C@H](C)C[C@H](C)C(=O)O)O4)O3)O[C@]3(O[C@@H]([C@H]4O[C@@](O)(CO)[C@H](C)C[C@H]4C)C[C@H]3C)[C@H]2C)O[C@H]1C (stereo partly drawn)', '296 nM (active)'),
  ('CCNC(=O)C[C@@H]1N=C(c2ccc(Cl)cc2)c2cc(OC)ccc2-n2c(C)nnc21', '372 nM (active)');
